Reference for the values: the DeepSol protein solubility set

# EXPERIMENT: soluble on expression in E. coli; label from the status in PepcDB or PDB records
READOUT_NAME: soluble on expression in E. coli

Worked cases, soluble on expression in E. coli given:
MALSKFNLFIGDILFNTLTGYAIKLESWEIEKLRKGVVPEHLKDIIEEGFSATDEDLDEEIEKFLRKPVLEPTLVLTYNCNFDCIYCFQKGFRKNISVSDKVTRGFVNYIRKNEKGRKVRVTYFGGEPILQLRKIEEISRELSDLKYSFSVVTNGSLLTRKIVERLIPLGLTHVQITLDGPKEVHDKRRFFVSGEGTFDVIVKNLKEIQDMVKVVLRINIDVKNLNEIGELLNELKMEGINRVRLDPHLVHSNVFRNEWWDFTISSKAEGDVMVKFWEIARKYGFEVPQDVLRLGLCVAYSSEDIVVDPEGNIYPCWAFTGNPLYVKGKLEEDGSVKVTNKSLWWKVKIEDKCRECPFLPLCMGGCKFLATINGDDCKREAYEKIVRSIRWVMG    not soluble
AHHHHHHGSRYVKLPKENTYEFLERLKDWGKLYAPVKISDKFYDFREIDDVRKIEFHYNRTIMPPKKFFFKPREKLFEFDISKPEYREVIEEVEPFIIFGVHACDIYGLKILDTVYLDEFPDKYYKVRREKGIIIGISCMPDEYCFCNLRETDFADDGFDLFFHELPDGWLVRVGTPTGHRLVDKNIKLFEEVTDKDICAFRDFEKRRQQAFKYHEDWGNLRYLLELEMEHPMWDEEADKCLACGICNTTCPTCRCYEVQDIVNLDGVTGYRERRWDSCQFRSHGLVAGGHNFRPTKKDRFRNRYLCKNAYNEKLGLSYCVGCGRCTAFCPANISFVGNLRRILGLEENKCPPTVSEEIPKRGFAYSSNIRGDGV    not soluble
MGHHHHHHHSSENLYFQGHMRKIRVGLIFGGKSAEHEVSLQSARNILDALDPQRFEPVLIGIDKQGQWHVNDPDSFLLHADDPARIALHRSGRGVALLPGAQQQQLRPIQPEQALAQIDVVFPIVHGTLGEDGSLQGLLRMANLPFVGSGVLGSAVAMDKDMAKRVLRDARLAVAPFVCFDRHTAAHADVDTLIAQLGLPLFVKPANQGSSVGVSQVRTADAFAAALALALAYDHKVLVEAAVAGREIECAVLGNAVPHASVCGEVVVHDAFYSYATKYISEHGAEIVIPADIDAQTQQRIQQIAVQAYQALGCAGMARVDVFLCADGRIVINEVNTLPGFTRISVYPKLWQASGLDYRGLITRLIELALERHTDDQLLRSAVELH    soluble
KMPISAGVTVERKLNDYLGIETGLLYSNLRSEGQHLHYLGIPLKANITLMDTKKIDLYATVGGVADKCIAGAPDNSFKEEPIQLAVTAGIGITYKINDRLAVFAEPG    not soluble
MTTRNPNRCPSHPGEILAESLEHLNASKTEIARILQISRQHLHGILKGERPVTAVTAARIGKLLGNGPALWLQLQANYDTWHALRDIDVSSIPTLTANEVDTQMEHSHS    not soluble

Query string: Would you kindly share the measured soluble on expression in E. coli for "MRSLISSLDLTREEVEEILKYAKEFKEGKEETIKASAVLFFSEPSTRTRLSFEKAARELGIETYLVSGSESSTVKGESFFDTLKTFEGLGFDYVVFRVPFVFFPYKEIVKSLNLRLVNAGDGTHQHPSQGLIDFFTIKEHFGEVKDLRVLYVGDIKHSRVFRSGAPLLNMFGAKIGVCGPKTLIPRDVEVFKVDVFDDVDKGIDWADVVIWLRLQKERQKENYIPSESSYFKQFGLTKERFEKVKLYMHPGPVNRNVDIDHELVYTEKSLIQEQVKNGIPVRKAIYKFLWT" ?
Result string: soluble

Query string: Also, "MEKRIVCLAGDGVGPEVMESAKEVLHMVERLYGHHFHLQDEHFGGVAIDLTGQPLPQRTLAACLASDAVLLGAVGGPRWDGAKERPEKGLLALRKGLGVFANVRPVTVESATAHLSPLKKADEIDFVVVRELTGGIYFSYPKERTDEVATDTLTYHRHEIERIVSCAFQLASKRKKKVTSIDKANVLESSKLWRIVTEEVALRYPDVELEHILVDAAAMELIRNPGRFDVIVTENLFGDILSDEASVLAGSLGMLPSASHAEKGPSLYEPIHGSAPDIAGKNKANPIAMMRSVAMMLGQSFGLTREGCAIEEAISAVLKSGKCTADIGGTETTTSFTKAVMQEMEEQALVGRGR" please.
Result string: not soluble
